# Tested System: Beta-secretase 1 (Homo sapiens)
# Sequence (P56817 whole entry): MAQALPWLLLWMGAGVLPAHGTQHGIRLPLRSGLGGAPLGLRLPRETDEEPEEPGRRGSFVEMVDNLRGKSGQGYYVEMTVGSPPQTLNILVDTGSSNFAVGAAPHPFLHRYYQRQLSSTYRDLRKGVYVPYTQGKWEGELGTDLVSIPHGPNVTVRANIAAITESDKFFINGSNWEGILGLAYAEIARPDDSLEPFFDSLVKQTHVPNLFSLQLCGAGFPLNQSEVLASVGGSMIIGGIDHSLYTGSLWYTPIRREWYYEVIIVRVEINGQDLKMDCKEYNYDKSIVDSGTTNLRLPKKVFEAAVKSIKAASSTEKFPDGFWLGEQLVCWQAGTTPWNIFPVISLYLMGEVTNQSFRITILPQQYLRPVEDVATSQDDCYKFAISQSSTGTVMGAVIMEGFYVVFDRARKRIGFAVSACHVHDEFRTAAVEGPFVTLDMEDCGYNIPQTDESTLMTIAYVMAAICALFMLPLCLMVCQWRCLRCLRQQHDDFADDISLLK
# Measurement Description: Inhibition of recombinant BACE-1 (unknown origin) expressed in Escherichia coli using biotinylated peptide substrate treated 20 mins before substrate addition measured after 3 hrs by fluorescence polarization assay
Measurement Name: pIC50
Conceptually, pIC50 converts a concentration in mol/L into minus its log10.

>  <Compound>
CC(=O)N[C@@H](Cc1cc(F)cc(F)c1)[C@H](O)CN[C@H]1CCCc2ccc(CC(C)(C)C)cc21

>  <Tested System>
Beta-secretase 1 (Homo sapiens)

>  <pIC50>
7.35

$$$$
>  <Compound>
CC(=O)N[C@@H](Cc1cc(F)cc(F)c1)[C@H](O)CN[C@H]1CCOc2ccc(OC3CCCC3)cc21

>  <Tested System>
Beta-secretase 1 (Homo sapiens)

>  <pIC50>
6.66

$$$$
>  <Compound>
CC(=O)N[C@@H](Cc1cc(F)cc(F)c1)[C@H](O)CN[C@H]1CC2(COC2)Oc2ccc(CC(C)(C)C)cc21

>  <Tested System>
Beta-secretase 1 (Homo sapiens)

>  <pIC50>
4.57

$$$$
>  <Compound>
CC(=O)N[C@@H](Cc1cc(F)cc(F)c1)[C@H](O)CN[C@H]1CCCc2ccc(C(C)(C)C)cc21

>  <Tested System>
Beta-secretase 1 (Homo sapiens)

>  <pIC50>
6.42

$$$$
>  <Compound>
CC(=O)N[C@@H](Cc1cc(F)cc(F)c1)[C@H](O)CN[C@H]1CC(C)(C)Oc2ccc(CC(C)(C)C#N)cc21

>  <Tested System>
Beta-secretase 1 (Homo sapiens)

>  <pIC50>
8.22

$$$$

Field pIC50 (entry CC(=O)N[C@@H](Cc1cc(F)cc(F)c1)[C@H](O)CN[C@H]1CCOc2ccc(OC3CCCO3)cc21 (mixture of isomers) ) reads 5.88

Field pIC50 (entry CCc1ccc2c(c1)[C@@H](NC[C@@H](O)[C@H](Cc1cc(F)cc(F)c1)NC(C)=O)CCC2 ) reads 6.27
